Entry source: patent US20260284010A1

Protocol text: Solubilization test of compound 1 with surfactants in FaSSIF
Format: physicochemical
Assay setup: FaSSIF (pH 6.5) with 5 mg Solutol HS15, 50 mg API in 5 mL, 37° C., 0.5 h; read-out: Concentration of API in vehicle
Experimental endpoint: solubility at 0.5 h (µg/mL)
Note: unit µg/mL is implicit; provide only the numeric part.

Field request: solubility at 0.5 h | item: NS(=O)(=O)c1cc(NC(=O)Cc2ccccc2Cl)cc2nn(C(F)F)cc12
1470

* * *

Protocol text: Solubilization test of compound 1 with surfactants in FaSSIF
Assay type: physicochemical
Assay setup: FaSSIF (pH 6.5) with 5 mg Cremophor RH40, 50 mg API in 5 mL, 37° C., 2 h; read-out: Concentration of API in vehicle
Experimental endpoint: solubility at 2 h (µg/mL)
Note: unit µg/mL is implicit; provide only the numeric part.

Field request: solubility at 2 h | item: NS(=O)(=O)c1cc(NC(=O)Cc2ccccc2Cl)cc2nn(C(F)F)cc12 [compound 1]
1570

* * *

Protocol text: Solubilization test of compound 1 with surfactants in FaSSIF
Format: physicochemical
Assay setup: fassif with poloxamer 407; FaSSIF (pH 6.5) with 5 mg Poloxamer 407, 50 mg API in 5 mL, 37° C., 4 h; read-out: Concentration of API in vehicle
Experimental endpoint: solubility at 4 h (µg/mL)
Note: unit µg/mL is implicit; provide only the numeric part.

Field request: solubility at 4 h | item: NS(=O)(=O)c1cc(NC(=O)Cc2ccccc2Cl)cc2nn(C(F)F)cc12
797

* * *

Protocol text: Solubilization test of compound 1 with surfactants in FaSSIF
Type: physicochemical
Assay setup: fassif with poloxamer 407; FaSSIF (pH 6.5) with 5 mg Poloxamer 407, 50 mg API in 5 mL, 37° C., 0.5 h; read-out: Concentration of API in vehicle
Experimental endpoint: solubility at 0.5 h (µg/mL)
Note: unit µg/mL is implicit; provide only the numeric part.

Field request: solubility at 0.5 h | item: NS(=O)(=O)c1cc(NC(=O)Cc2ccccc2Cl)cc2nn(C(F)F)cc12
838

* * *

Protocol text: Solubilization test of compound 1 with surfactants in FaSSIF
Format: physicochemical
Assay setup: FaSSIF (pH 6.5) with 5 mg Cremophor RH40, 50 mg API in 5 mL, 37° C., 0.5 h; read-out: Concentration of API in vehicle
Experimental endpoint: solubility at 0.5 h (µg/mL)
Note: unit µg/mL is implicit; provide only the numeric part.

Field request: solubility at 0.5 h | item: NS(=O)(=O)c1cc(NC(=O)Cc2ccccc2Cl)cc2nn(C(F)F)cc12
1580

* * *

Protocol text: Solubilization test of compound 1 with surfactants in FaSSIF
Format: physicochemical
Assay setup: FaSSIF (pH 6.5), no surfactant, 50 mg API in 5 mL, 37° C., 2 h; read-out: Concentration of API in vehicle
Experimental endpoint: solubility at 2 h (µg/mL)
Note: unit µg/mL is implicit; provide only the numeric part.

Field request: solubility at 2 h | item: NS(=O)(=O)c1cc(NC(=O)Cc2ccccc2Cl)cc2nn(C(F)F)cc12
15.2

* * *

Protocol text: Solubilization test of compound 1 with surfactants in FaSSIF
Assay type: physicochemical
Assay setup: FaSSIF (pH 6.5) with 5 mg SLS, 50 mg API in 5 mL, 37° C., 2 h; read-out: Concentration of API in vehicle
Experimental endpoint: solubility at 2 h (µg/mL)
Note: unit µg/mL is implicit; provide only the numeric part.

Field request: solubility at 2 h | item: NS(=O)(=O)c1cc(NC(=O)Cc2ccccc2Cl)cc2nn(C(F)F)cc12 [compound 1]
639
